- measurement protocol: chemical genetic growth profiling, strain panel (AID 1159580);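 note: tested at 20 µM; growth read once vehicle control cultures reached saturation at 30 °C; 1 = growth at the plate median or of vehicle wells; lower values mean less growth of the strain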
- conditions: S. cerevisiae deletion strains, growth OD, locus YOR001W, strain rrp6, active compounds read low
About 2,000 (36%) of roughly 5,500 compounds were called active. Not shown: some 18% with an inconclusive outcome. The list shows a part of the results.
reported property: normalized growth

[[record]]
compound = "COc1ccc2c(c1)O[C@H]1c3ccc(OC)cc3OC[C@@H]21"
reported_property = "normalized growth"
reported_result = "1.02 (inactive)"

[[record]]
compound = "CC1=CC2C(CC1=O)C(C)=CCC2C(C)C (stereo not drawn)"
reported_property = "normalized growth"
reported_result = "0.984 (inactive)"

[[record]]
compound = "Cc1cc(NC(=O)C2=C(O)c3ccccc3S(=O)(=O)N2C)no1"
reported_property = "normalized growth"
reported_result = "0.997 (inactive)"

[[record]]
compound = "NS(=O)(=O)c1cc2c(cc1Cl)NC(C(Cl)Cl)NS2(=O)=O (stereo not drawn)"
reported_property = "normalized growth"
reported_result = "0.978 (inactive)"

[[record]]
compound = "CC(C(=O)O)c1ccc(C(=O)c2cccs2)cc1 (stereo not drawn)"
reported_property = "normalized growth"
reported_result = "1.01 (inactive)"


The reported value for COc1ccc(-c2coc3cc(OC)cc(OC)c3c2=O)cc1 in terms of normalized growth is 1.01 (inactive)

GET /value?item= COc1ccc2c(c1OC)C(=O)OC2[C@H]1c2c(cc3c(c2OC)OCO3)CCN1C (stereo partly drawn) &field=normalized growth returns 1.02 (inactive)

// normalized growth value for Nc1nc2ncc(=O)[nH]c2c(=O)[nH]1 : 0.986 (inactive)

###

- measurement protocol: chemical genetic growth profiling, strain panel (AID 1159580);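 note: tested at 20 µM; growth read once vehicle control cultures reached saturation at 30 °C; 1 = growth at the plate median or of vehicle wells; lower values mean less growth of the strain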
- conditions: S. cerevisiae deletion strains, growth OD, locus YML032C, strain rad52, active compounds read low
About 2,000 (36%) of roughly 5,500 compounds were called active. Not shown: some 18% with an inconclusive outcome. Some of the results follow.
reported property: normalized growth
Lab note: jot the number down without any unit.

Look over these answered cases.
[[record]]
molecule = "O=C(O)c1ccccc1-c1c2cc(Br)c(=O)cc-2oc2[c]([Hg])c(O)c(Br)cc12"
reported_property = "normalized growth"
reported_result = 0.99

[[record]]
molecule = "CCC(C)(C)C(=O)O[C@H]1C[C@@H](C)C=C2C=C[C@H](C)[C@H](CC[C@@H]3C[C@@H](O)CC(=O)O3)[C@H]21"
reported_property = "normalized growth"
reported_result = 1.02

[[record]]
molecule = "CC1(C)O[C@@H]2CC3C4CCC5=CC(=O)CCC5(C)C4(F)C(O)CC3(C)[C@]2(C(=O)CCl)O1 (some centres undefined)"
reported_property = "normalized growth"
reported_result = 1.01

[[record]]
molecule = "CC[N+](CC)(CC)CCOc1cccc(OCC[N+](CC)(CC)CC)c1OCC[N+](CC)(CC)CC"
reported_property = "normalized growth"
reported_result = 1

[[record]]
molecule = "C=C1C(C)C2C(Cc3ccccc3)NC(=O)C23OC(=O)/C=C/C(O)CCCC(C)C/C=C/C3C1O (centres undefined)"
reported_property = "normalized growth"
reported_result = 1

[[record]]
molecule = "COC(=O)C(C)c1ccc(C(=O)c2cccs2)cc1 (centres undefined)"
reported_property = "normalized growth"
reported_result = 0.934

[[record]]
molecule = "CC(C)(C)CC(C)(C)c1ccc(O)c(Cc2ccc(Cl)cc2Cl)c1"
reported_property = "normalized growth"
reported_result = 1.02

[[record]]
molecule = "OCc1ccccc1O"
reported_property = "normalized growth"
reported_result = 0.979


Continue with the molecule presented below.
The reported value for NC(=O)c1cccc(N)c1 in terms of normalized growth is 0.993
